tested on: Liver microsomes; assay: Intrinsic clearance in human liver microsomes after 0.5 to 4 hrs by UPLC-MS analysis; type: ADME, Microsome

molecule	Intrinsic clearance (CLint)
CCCOc1cccc(-c2[nH]c3cc(OC)ccc3c(=O)c2C(=O)OCC)c1	12 µL/min/mg
CCOC(=O)c1c(-c2ccc3c(c2)OCO3)[nH]c2cc(OC)ccc2c1=O	12 µL/min/mg
CCOC(=O)c1c(-c2cccc(Cl)c2)[nH]c2cc(OC)ccc2c1=O	3.4 µL/min/mg
COc1cc2[nH]c(-c3cccc(Oc4ccccc4)c3)c(C(=O)OCCCN3CCOCC3)c(=O)c2cc1F	11 µL/min/mg
CCOC(=O)c1c(-c2cccc(Cl)c2)[nH]c2cc(OC)c(F)cc2c1=O	0.5 µL/min/mg
CCOC(=O)c1c(-c2cccc(OC)c2)[nH]c2cc(OC)ccc2c1=O	5.7 µL/min/mg
CCOC(=O)c1c(-c2cc(F)cc(OC)c2)[nH]c2cc(OC)c(F)cc2c1=O	56 µL/min/mg
CCOC(=O)c1c(-c2cccc(Br)c2)[nH]c2cc(OC)c(F)cc2c1=O	1.2 µL/min/mg
CCOC(=O)c1c(-c2cccc(-c3ccccc3)c2)[nH]c2cc(OC)ccc2c1=O	5 µL/min/mg
CCOC(=O)c1c(-c2cccc(OCC)c2)[nH]c2cc(OC)ccc2c1=O	5.7 µL/min/mg
COc1cc2[nH]c(-c3cccc(Oc4ccccc4)c3)c(C(=O)OCCO)c(=O)c2cc1F	4.8 µL/min/mg
